target: HuR F279A (human, UniProt Q15717 1-326, F279A); assay: ITC; n=1.0; ITC: 50 mM sodium phosphate pH 7.0, 200 mM NaCl, 2 mM beta-mercaptoethanol, 298 K; NMR: 20 mM sodium phosphate pH 7.0, 200 mM NaCl, 5 mM DTT, 1 mM EDTA, 298 K; settings: protein: recombinant; tags: untagged (tag cleaved)
Sequence (Q15717 whole entry F279A): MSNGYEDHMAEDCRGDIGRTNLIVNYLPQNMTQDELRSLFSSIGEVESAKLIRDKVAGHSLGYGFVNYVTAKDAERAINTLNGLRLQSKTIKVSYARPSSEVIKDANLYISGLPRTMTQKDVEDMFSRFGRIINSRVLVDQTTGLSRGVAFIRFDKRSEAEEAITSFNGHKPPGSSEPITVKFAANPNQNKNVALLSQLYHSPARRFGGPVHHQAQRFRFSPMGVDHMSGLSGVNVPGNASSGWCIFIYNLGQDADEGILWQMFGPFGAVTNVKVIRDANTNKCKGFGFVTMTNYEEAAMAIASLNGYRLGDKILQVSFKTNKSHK
measurement name: pKd
The read-out pKd is expressed as -log10 of concentration in moles per litre.

Q) Looking for the measured pKd of AUUUUUAUUUUAUUUUU (ssRNA) [AU17] , can you help?
A) 7.54
